# credit: paper PMC12040169

- TEST DETAILS: in vitro
- RUN CONDITIONS: human, hela cells, % viability
Readings of viability at 28.5 h, 10 µM for the listed molecules
VALUE TYPE: viability at 28.5 h, 10 µM (%)

> print(dat)
                                    molecule  measure.unit  endpoint.result
 1    CC(=O)N1CCN(c2ncnc3c2nnn3-c2ccccc2)CC1             %             92.9
 2  O=C1N/C(=N/N=C/c2ccc(O)cc2)SC1Cc1ccccc1[N+](=O)[O-] (stereo not shown)             %             91.9
 3  O=C(NCc1nc2ccccc2[nH]1)c1cc(-c2ccc(Cl)cc2)cnc1NCc1ccc2c(c1)OCO2             %              102
 4  Oc1c(-c2ccc(Cl)cc2)c2nc3ccccc3nc2c2ccccc12             %             87.7
 5  Cc1ccc(C(CC(=O)O)NC(=O)c2ccc(S(=O)(=O)N3CCCC(C)C3)cc2)cc1 (stereo not shown)             %             95.7
 6       CC(C)CC(=O)N1CCC(c2nnc3n2CCCCC3)CC1             %             83.2
 7  CS(=O)(=O)N1CC2(CCN(Cc3cc(=O)[nH]c(=O)[nH]3)CC2)c2ccccc21             %              103
 8  C[C@@H]1CN2CCCC2CN1Cc1ccc(F)c(F)c1 (stereo partly shown)             %             99.5
 9        COCCCn1c(CCC(=O)O)ccc1-c1ccc(F)cc1             %              104
10  N#C/C(=C\c1ccc(-c2cc(Cl)ccc2Cl)o1)C(=O)Nc1cccc2cccnc12             %              110
11  COc1cccc(-c2nccnc2C2CCCN(S(=O)(=O)c3ccc(F)cc3)C2)c1 (stereo not shown)             %              108
12    O=C(NCc1ccc2c(c1)OCO2)c1ccc2[nH]ccc2c1             %              106
13  O=C(Cc1c[nH]c2ccccc12)N1CCCC1c1cccc(Cc2ccccc2F)n1 (stereo not shown)             %             89.7
14    Cc1cc(CN(C)Cc2cnn(Cc3ccccc3)c2C)n[nH]1             %             94.6
15  COCCN1C(=O)C2(CC(=O)N(CC(=O)N(C)C)C2=O)c2cc(F)ccc21 (stereo not shown)             %              104
16  CCn1c(=O)n(CC2(O)CCCOC2)c2cc(S(=O)(=O)N(C)C)ccc21 (stereo not shown)             %             90.6
17         COc1ccc(C(C)C)cc1-c1nc2ncccc2cc1N             %             95.8
18           CCCCOc1ccc(NC(=O)NCCc2cccs2)cc1             %              105
19  O=S(=O)(NCCc1nc2ccccc2[nH]1)c1ccc(Cl)c(Cl)c1             %             93.5
